# assayText: Changes in the mucolytic activity of the test compounds treated with rabbit serum (viscosity of egg white)
# conditionContext: 1.0 mM; rabbit serum treated vs untreated
Doc: threshold 30% (exclusive). Items with Reduction in the mucolytic activity (%) beneath it return y; others return n.

Use these answered entries as a reference point.
CC(=O)N[C@@H](CS)C(=O)O [N-acetyl-L-cysteine, acetyl-L-cysteine, reference compound]
n
CCOC(=O)[C@@H](N)CS.Cl [L-cysteine ethyl ester hydrochloride, L-Cysteine ethyl ester hydrochloride, reference compound]
n
O=C(CS)N[C@@H](CS)C(=O)O [N-mercaptoacetyl-L-cysteine]
y
COC(=O)[C@@H](N)CS.Cl [L-cysteine methyl ester hydrochloride, reference compound]
n
CC(C)(S)C(=O)N[C@@H](CS)C(=O)O [N-(2-mercaptoisobutyryl)-L-cysteine]
y

In plain terms, does CC(S)C(=O)N[C@@H](CS)C(=O)O (single isomer, unassigned) [N-(2-mercaptopropionyl)-L-cysteine-A] come in under 30% for Reduction in the mucolytic activity (%)?
y

In plain terms, does CC(S)C(=O)N[C@@H](CS)C(=O)O (single isomer, unassigned) [N-(2-mercaptopropionyl)-L-cysteine-B] come in under 30% for Reduction in the mucolytic activity (%)?
y

In plain terms, does O=C(CCS)N[C@@H](CS)C(=O)O [N-(3-mercaptopropionyl)-L-cysteine] come in under 30% for Reduction in the mucolytic activity (%)?
y

====

# assayText: in vivo
# conditionContext: mouse, ip
# Description: 5-week-old male mice of ddy strain (body weight 24-28g) are used. […] Test solution Test compound is added to physiological saline and the resulting solution is neutralized with sodium hydroxide to form a 5% solution (pH 7.0). After administration of test solution, general symptoms and deaths which are caused during seven days are observed. The LD50 values are calculated according to the method of Litchfield and Wilcoxon.
metric: LD50 at 168 h (mg/kg)
Write it as a number; the unit mg/kg goes unstated.

Return reported LD50 at 168 h; argument: CC(S)C(=O)N[C@@H](CS)C(=O)O (single isomer, unassigned)
2090

====

The compounds listed here are annotated with their Percent reduction in relative viscosity of egg white, treated with rabbit serum.
# assayText: Changes in the mucolytic activity of the test compounds treated with rabbit serum (viscosity of egg white)
# conditionContext: final concentration 1.0 mM; after 30 minutes at 37° C with rabbit serum; mean ± S.E. of 3 to 5 experiments
Write it as a number; the unit % goes unstated.

Return reported Percent reduction in relative viscosity of egg white, treated with rabbit serum; argument: CC(S)C(=O)N[C@@H](CS)C(=O)O (single isomer, unassigned) [N-(2-mercaptopropionyl)-L-cysteine-B]
31.1

Return reported Percent reduction in relative viscosity of egg white, treated with rabbit serum; argument: O=C(CS)N[C@@H](CS)C(=O)O
35.9

Return reported Percent reduction in relative viscosity of egg white, treated with rabbit serum; argument: CC(C)(S)C(=O)N[C@@H](CS)C(=O)O
32.9

Return reported Percent reduction in relative viscosity of egg white, treated with rabbit serum; argument: CC(S)C(=O)N[C@@H](CS)C(=O)O (single isomer, unassigned) [N-(2-mercaptopropionyl)-L-cysteine-A]
30.0

Return reported Percent reduction in relative viscosity of egg white, treated with rabbit serum; argument: O=C(CCS)N[C@@H](CS)C(=O)O
38.7

Return reported Percent reduction in relative viscosity of egg white, treated with rabbit serum; argument: COC(=O)[C@@H](N)CS.Cl [L-cysteine methyl ester hydrochloride, reference compound]
7.0

Return reported Percent reduction in relative viscosity of egg white, treated with rabbit serum; argument: CCOC(=O)[C@@H](N)CS.Cl [L-cysteine ethyl ester hydrochloride, L-Cysteine ethyl ester hydrochloride, reference compound]
15.4

Return reported Percent reduction in relative viscosity of egg white, treated with rabbit serum; argument: CC(=O)N[C@@H](CS)C(=O)O [N-acetyl-L-cysteine, acetyl-L-cysteine, reference compound]
18.5
